- tested_on: CYP2C9 (Homo sapiens, UniProt P11712)
- Sequence (P11712 whole entry): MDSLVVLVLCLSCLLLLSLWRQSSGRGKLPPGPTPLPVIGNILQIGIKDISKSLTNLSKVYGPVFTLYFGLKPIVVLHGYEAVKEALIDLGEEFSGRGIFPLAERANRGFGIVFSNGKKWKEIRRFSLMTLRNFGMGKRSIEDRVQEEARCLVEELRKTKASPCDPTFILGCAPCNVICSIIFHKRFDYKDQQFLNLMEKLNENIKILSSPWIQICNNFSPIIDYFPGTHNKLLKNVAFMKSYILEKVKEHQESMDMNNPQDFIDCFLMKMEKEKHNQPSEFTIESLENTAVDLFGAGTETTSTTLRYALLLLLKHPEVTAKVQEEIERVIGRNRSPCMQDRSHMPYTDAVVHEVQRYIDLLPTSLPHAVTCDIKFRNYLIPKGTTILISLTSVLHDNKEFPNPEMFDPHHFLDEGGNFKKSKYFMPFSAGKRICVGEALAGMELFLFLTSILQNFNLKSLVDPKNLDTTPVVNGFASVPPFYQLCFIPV
value_kind: pKi
One number for each entry, as −log10 of the molar value.

Give its pKi value. Item: CC(C)[C@H](NC(=O)c1nn(Cc2ccc(F)cc2)c2ccccc12)C(N)=O [AB-FUBINACA]
4.88

###

- tested_on: CYP2D6 (Homo sapiens)
- Sequence (P10635 whole entry): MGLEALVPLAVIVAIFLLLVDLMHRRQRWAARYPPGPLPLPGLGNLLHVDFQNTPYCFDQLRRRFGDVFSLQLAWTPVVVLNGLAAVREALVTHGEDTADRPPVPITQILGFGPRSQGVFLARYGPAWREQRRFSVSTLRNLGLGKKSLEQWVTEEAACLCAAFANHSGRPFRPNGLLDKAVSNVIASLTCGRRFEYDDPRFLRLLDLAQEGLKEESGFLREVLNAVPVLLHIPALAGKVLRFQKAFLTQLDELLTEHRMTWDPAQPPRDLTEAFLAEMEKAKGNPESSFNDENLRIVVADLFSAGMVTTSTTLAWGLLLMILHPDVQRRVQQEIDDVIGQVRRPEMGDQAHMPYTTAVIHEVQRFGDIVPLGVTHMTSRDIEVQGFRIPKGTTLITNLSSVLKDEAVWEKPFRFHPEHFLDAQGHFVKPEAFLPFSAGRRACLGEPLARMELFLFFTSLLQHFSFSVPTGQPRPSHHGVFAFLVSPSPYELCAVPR
value_kind: IC50
# output: number + unit

Give its IC50 value. Item: `CC(C)[C@H](NC(=O)c1nn(Cc2ccc(F)cc2)c2ccccc12)C(N)=O`
40.4 µM

###

- tested_on: OATP1B1 (Homo sapiens, UniProt Q9Y6L6)
- Construct: transiently overexpressed in HEK293 cells (Corning)
- Sequence (Q9Y6L6 whole entry): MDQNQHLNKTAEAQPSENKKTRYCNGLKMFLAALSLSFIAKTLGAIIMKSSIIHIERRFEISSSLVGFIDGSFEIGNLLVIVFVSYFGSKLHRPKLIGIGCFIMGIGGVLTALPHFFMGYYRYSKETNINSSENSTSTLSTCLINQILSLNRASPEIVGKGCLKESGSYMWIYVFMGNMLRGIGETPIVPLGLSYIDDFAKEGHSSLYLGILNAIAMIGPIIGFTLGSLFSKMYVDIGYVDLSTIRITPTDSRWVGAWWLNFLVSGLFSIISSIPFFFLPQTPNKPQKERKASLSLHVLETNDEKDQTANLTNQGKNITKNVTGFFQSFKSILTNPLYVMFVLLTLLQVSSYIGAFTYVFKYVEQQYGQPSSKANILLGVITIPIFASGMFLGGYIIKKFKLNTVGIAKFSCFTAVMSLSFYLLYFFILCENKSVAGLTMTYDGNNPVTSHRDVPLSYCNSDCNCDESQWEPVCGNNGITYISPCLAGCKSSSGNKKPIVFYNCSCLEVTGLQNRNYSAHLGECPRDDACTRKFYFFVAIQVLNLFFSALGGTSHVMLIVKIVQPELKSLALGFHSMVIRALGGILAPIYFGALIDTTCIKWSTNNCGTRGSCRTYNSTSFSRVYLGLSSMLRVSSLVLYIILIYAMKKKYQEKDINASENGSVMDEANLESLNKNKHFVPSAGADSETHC
- method: [3H]estrone-3-sulfate uptake in HEK293-OATP1B1 cells, Lineweaver-Burk
value_kind: Ki (µM)
One number for each entry, in µM.

Give its Ki value. Item: `CC(C)[C@H](NC(=O)c1nn(Cc2ccc(F)cc2)c2ccccc12)C(N)=O`
94.4

Provenance of the data: paper PMC7582776
